For each entry below, report its pIC50 value.
Tested target: recombinant human LTA4 hydrolase (rhLTA4H) (Homo sapiens, UniProt P09960)
Construct: made in house; host or cells: Spodoptera frugiperda (Sf-9) cells, baculovirus (pFastBac1)
Sequence (P09960 whole entry): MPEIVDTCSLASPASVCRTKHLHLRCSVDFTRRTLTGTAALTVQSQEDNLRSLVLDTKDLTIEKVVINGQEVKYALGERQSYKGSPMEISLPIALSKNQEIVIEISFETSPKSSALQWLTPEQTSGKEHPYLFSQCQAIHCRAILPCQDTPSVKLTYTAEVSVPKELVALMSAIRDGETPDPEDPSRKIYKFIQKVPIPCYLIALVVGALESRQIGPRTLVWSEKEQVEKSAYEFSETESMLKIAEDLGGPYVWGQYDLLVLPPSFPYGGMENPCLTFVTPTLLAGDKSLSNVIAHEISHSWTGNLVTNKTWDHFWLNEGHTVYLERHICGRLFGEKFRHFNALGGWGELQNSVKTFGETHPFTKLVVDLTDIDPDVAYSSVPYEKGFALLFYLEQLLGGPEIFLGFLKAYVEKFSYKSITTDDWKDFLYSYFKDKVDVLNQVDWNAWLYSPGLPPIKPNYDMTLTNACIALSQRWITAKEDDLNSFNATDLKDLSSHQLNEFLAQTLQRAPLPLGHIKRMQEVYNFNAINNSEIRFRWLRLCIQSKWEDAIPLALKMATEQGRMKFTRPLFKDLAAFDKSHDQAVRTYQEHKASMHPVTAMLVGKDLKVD
Experimental protocol: Recombinant human LTA4 hydrolase assay for LTA4 hydrolase inhibitor activity
Format: biochemical
Condition description: rhLTA4H, LTB4 by immunoassay; single determination or average of two or more; mark after value = form tested: ′ free base, ″ hydrochloride, ^ formate; read-out: IC50
Counter-ions that a name gives are not always drawn.
The scale used: pIC50 is minus the common logarithm of the concentration in molar units.

Query block: Provide only the value of recorded pIC50 for c1cnc2nc(Oc3ccc4c(CNC5CC5)coc4c3)sc2c1
Result block: 7.72

Query block: Provide only the value of recorded pIC50 for FC1CCN(Cc2cc3ccc(Oc4nc5ncccc5s4)cc3o2)CC1 [Example 190, formate]
Result block: 6.94

Query block: Provide only the value of recorded pIC50 for CC(=O)N1C[C@@H]2C[C@H]1CN2Cc1c[nH]c2cc(Oc3nc4ccccc4s3)ccc12
Result block: 8.52

Query block: Provide only the value of recorded pIC50 for CC(=O)N1C[C@H]2CC[C@@H](C1)N2Cc1cc2ccc(Oc3nc4cccnc4s3)cc2o1
Result block: 5.83

Query block: Provide only the value of recorded pIC50 for CCOC(=O)C1CCN(Cc2coc3cc(Oc4nc5ccccc5s4)ccc23)CC1
Result block: 6.76

Query block: Provide only the value of recorded pIC50 for CC(=O)N1C[C@H]2CC[C@@H](C1)N2CCc1coc2cc(Oc3nc4ncccc4s3)ccc12
Result block: 8.30

Query block: Provide only the value of recorded pIC50 for c1ccc2sc(Oc3ccc4cc(CN5CCCCC5)[nH]c4c3)nc2c1
Result block: 7.47

Query block: Provide only the value of recorded pIC50 for c1ccc2c(c1)CN(Cc1c[nH]c3cc(Oc4nc5ccccc5s4)ccc13)C2
Result block: 7.77

Query block: Provide only the value of recorded pIC50 for O=C(O)c1ccc(C(=O)NCc2coc3cc(Oc4nc5ncccc5s4)ccc23)cc1
Result block: 7.28

Query block: Provide only the value of recorded pIC50 for CCOC(=O)C1CCN(Cc2c[nH]c3cc(Oc4nc5cccnc5s4)ccc23)CC1
Result block: 7.68

Query block: Provide only the value of recorded pIC50 for c1ccc2sc(Oc3ccc4oc(CN5CCCCC5)cc4c3)nc2c1 [Example 82, formate]
Result block: 6.72

Query block: Provide only the value of recorded pIC50 for CC(=O)N1C[C@H]2CC[C@@H](C1)N2Cc1cc2cc(Oc3nc4ncccc4s3)ccc2o1
Result block: 8.52

Query block: Provide only the value of recorded pIC50 for c1cnc(OC2CCN(Cc3coc4cc(Oc5nc6ncccc6s5)ccc34)CC2)nc1
Result block: 8.40

Query block: Provide only the value of recorded pIC50 for O=C(c1cnccn1)N1C[C@@H]2C[C@H]1CN2Cc1coc2cc(Oc3nc4ncccc4s3)ccc12
Result block: 7.74

Query block: Provide only the value of recorded pIC50 for c1ccc2sc(Oc3ccc4c(CN5CCCCC5)c[nH]c4c3)nc2c1
Result block: 7.72

Query block: Provide only the value of recorded pIC50 for NC(=O)N1C[C@@H]2C[C@H]1CN2Cc1coc2cc(Oc3nc4ncccc4s3)ccc12 [Example 209, formate]
Result block: 7.28

Query block: Provide only the value of recorded pIC50 for CC(=O)N1C[C@H]2C[C@@H]1CN2C(=O)c1cc2cc(Oc3nc4ncccc4s3)ccc2o1
Result block: 7.70

----------
For each entry below, report its pIC50 value.
Tested target: recombinant human LTA4 hydrolase (rhLTA4H) (Homo sapiens)
Construct: made in house; host or cells: Spodoptera frugiperda (Sf-9) cells, baculovirus (pFastBac1)
Experimental protocol: Recombinant human LTA4 hydrolase assay for LTA4 hydrolase inhibitor activity
Format: biochemical
Condition description: rhLTA4H, LTB4 by immunoassay; single determination or average of two or more; mark after value = form tested: ′ free base, ″ hydrochloride, ^ formate; read-out: IC50
Structures can show the parent of a compound that is named as a salt.
The scale used: pIC50 is minus the common logarithm of the concentration in molar units.

Query block: Provide only the value of recorded pIC50 for c1ccc2sc(Oc3ccc4[nH]cc(CN5CCCCC5)c4c3)nc2c1
Result block: 6.38

Query block: Provide only the value of recorded pIC50 for CC(=O)N1CCN(C(=O)c2coc3cc(Oc4nc5ncccc5s4)ccc23)CC1
Result block: 8.15

Query block: Provide only the value of recorded pIC50 for CC(C)(C)C(=O)NC1CCN(Cc2cc3ccc(Oc4nc5ncccc5s4)cc3o2)C1 (centres unmarked) [Example 236, formate]
Result block: 7.22

Query block: Provide only the value of recorded pIC50 for CC(C)(C)OC(=O)N1CC2CN(Cc3c[nH]c4cc(Oc5nc6ccccc6s5)ccc34)CC2C1 (centres unmarked)
Result block: 7.77

Query block: Provide only the value of recorded pIC50 for NC(=O)N1CCC(N(Cc2coc3cc(Oc4nc5ncccc5s4)ccc23)C2CC2)CC1
Result block: 7.49

Query block: Provide only the value of recorded pIC50 for O=C(O)C1CCN(CCc2coc3cc(Oc4nc5ccccc5s4)ccc23)CC1
Result block: 7.32

Query block: Provide only the value of recorded pIC50 for COC1CCN(Cc2coc3cc(Oc4nc5ncccc5s4)ccc23)CC1 [Example 271, formate]
Result block: 8.30

Query block: Provide only the value of recorded pIC50 for O=C1CN(Cc2coc3cc(Oc4nc5ncccc5s4)ccc23)CCN1
Result block: 7.80

----------
Tested on: LTB4 production in murine blood (LTA4H)
Experimental protocol: LTB4 production by calcium ionophore-stimulated murine blood for LTA4H inhibitor activity
Type: cell-based, CD-1 mice
Condition description: Mus musculus; murine blood diluted 1 in 15, A23187 stimulated; single determination or average; mark after value = form tested: ′ free base, ″ hydrochloride, ^ formate; read-out: IC50
Counter-ions that a name gives are not always drawn.
Quantity: log10 IC50 (log10 of the value in µM)
Kindly note that the scale is log10 and the underlying IC50 is in µM.

Query block: Provide only the value of recorded log10 IC50 for CC(=O)N1C[C@@H]2C[C@H]1CN2Cc1c[nH]c2cc(Oc3nc4ncccc4s3)ccc12
Result block: -0.98

Query block: Provide only the value of recorded log10 IC50 for CCCOC1CN(Cc2coc3cc(Oc4nc5ncccc5s4)ccc23)C1
Result block: -1.55

Query block: Provide only the value of recorded log10 IC50 for CS(=O)(=O)C1CCN(Cc2cc3cc(Oc4nc5ncccc5s4)ccc3o2)CC1
Result block: -0.40

Query block: Provide only the value of recorded log10 IC50 for c1ccc2sc(Oc3ccc4cc(CN5CCCCC5)[nH]c4c3)nc2c1
Result block: -0.53

Query block: Provide only the value of recorded log10 IC50 for CC(=O)NC1CCN(Cc2coc3cc(Oc4nc5nccc(C)c5s4)ccc23)CC1 [Example 252, formate]
Result block: -1.32

Query block: Provide only the value of recorded log10 IC50 for CC(=O)N[C@H]1C[C@H]2CC[C@@H](C1)N2Cc1cc2ccc(Oc3nc4ncccc4s3)cc2s1
Result block: -0.96

Query block: Provide only the value of recorded log10 IC50 for c1ccc2sc(Oc3ccc4[nH]c(CN5CCCC5)cc4c3)nc2c1
Result block: 0.05

Query block: Provide only the value of recorded log10 IC50 for CC(=O)N(C(C)C)C1CCN(Cc2coc3cc(Oc4nc5ncccc5s4)ccc23)CC1
Result block: -1.39

Query block: Provide only the value of recorded log10 IC50 for CC1CCN(Cc2coc3cc(Oc4nc5ncccc5s4)ccc23)CC1 [Example 286, formate]
Result block: -1.26

Query block: Provide only the value of recorded log10 IC50 for O=C(c1coc2cc(Oc3nc4ncccc4s3)ccc12)N1CCC(N2CCCC2=O)CC1
Result block: -1.52

Query block: Provide only the value of recorded log10 IC50 for CC(=O)N1CCN(C(=O)c2coc3cc(Oc4nc5ncccc5s4)ccc23)CC1
Result block: -1.46

Query block: Provide only the value of recorded log10 IC50 for c1cnc2nc(Oc3ccc4c(CN5CCN(C6CC6)CC5)coc4c3)sc2c1
Result block: -0.89

Query block: Provide only the value of recorded log10 IC50 for CC(=O)N[C@H]1C[C@H]2CC[C@@H](C1)N2Cc1coc2cc(Oc3nc4ccccc4s3)ccc12
Result block: -1.48

Query block: Provide only the value of recorded log10 IC50 for CNC(=O)C1CCN(Cc2coc3cc(Oc4nc5ncccc5s4)ccc23)CC1
Result block: -1.72

Query block: Provide only the value of recorded log10 IC50 for c1ccc2sc(Oc3ccc4c(CN5CCOCC5)c[nH]c4c3)nc2c1
Result block: -0.52

Query block: Provide only the value of recorded log10 IC50 for Fc1cnc2nc(Oc3ccc4c(CN5CCOCC5)c[nH]c4c3)sc2c1
Result block: -0.60

Query block: Provide only the value of recorded log10 IC50 for CC(=O)N1C[C@@H]2C[C@H]1CN2C(=O)c1coc2cc(Oc3nc4ncccc4s3)ccc12
Result block: -1.08
